- System: PC-3 prostate
- Method Summary: NCI-60 one-dose screen, 48 h (100 = growth as untreated, 0 = no growth, -100 = all killed)
- Experimental Setup: 10 µM unless noted
Compounds without any hit were thinned out: in the full panel of roughly 83,000, 20% have a hit.
Decide by growth: equal to or exceeding 70% means condition met, less means condition not met.

Compound	Cat
Cc1c2c(c(C)c3c1oc1cc(O)ccc13)C(=O)N(CCN1CCCCC1)C2=O	condition met
C=CCNc1nc(NN2C(=O)c3cccc4cccc(c34)C2=O)nc(-n2cnc3ccccc32)n1	condition not met
CCN(CC)CCCCCCNc1cc(OC)c(Cl)c2cccnc12	condition not met
N#Cc1c(-c2ccccc2)cc(-c2ccc(Nc3nc(Nc4ccc(F)cc4)nc(Nc4ccc(F)cc4)n3)cc2)nc1N	condition met
C=C(C)[C@@H]1CC[C@]2(C(=O)NC3CCCCC3)CC[C@]3(C)[C@H](CC[C@@H]4[C@@]5(C)CCC(=O)C(C)(C)[C@@H]5CC[C@]43C)[C@@H]12	condition not met
O=C(Nc1cccc2c(O)c(N=Nc3ccc(S(=O)(=O)Nc4nccs4)cc3)cc(N=Nc3ccc(S(=O)(=O)Nc4nccs4)cc3)c12)C(Cl)Cl	condition not met
CCN1C(=O)N(CC)C2Nn3c(s/c(=C\c4cccc([N+](=O)[O-])c4)c3=O)=NC21 (stereo not drawn)	condition not met

----------
- Test system: SK-MEL-28 melanoma
- Method Summary: NCI-60 one-dose screen, 48 h
- Experimental Setup: 10 µM unless noted
About 83,000 compounds went through this panel and 20% of them were active in at least one assay; those are over-represented in the sample as a whole. The source made the active and inactive calls. How the source made its calls: active means growth percent below 10; inactive means the rest.
Possible outcomes: class 1 (active), class 0 (inactive)

Compound	Cat
Cc1ccc2nc(C)c(-c3nnc(SCc4ccc(C#N)cc4)o3)n2c1	class 0
COC(=O)[C@]12CC[C@@H](C)[C@H](C)[C@@H]1C1=CC[C@@H]3[C@@]4(C)C(C=O)=C[C@@](C)(COC(=O)/C=C/c5ccccc5)[C@@H]4[C@H](O)C[C@@]3(C)[C@]1(C)CC2	class 1
N#Cc1c(N2CCNCC2)nc2sc3cc(Cl)c(Cl)cc3n2c1=N	class 0
N#Cc1c(-c2ccccn2)[nH]c(=S)[nH]c1=O	class 0
NNC(=O)c1nc(N)n(-c2ccc(S(N)(=O)=O)cc2)n1	class 0
CC(CCc1ccc(Cl)c(Cl)c1)NCc1ccc(C(C)(C)C)cc1 (centres undefined)	class 0
Cc1nn(-c2ccccc2)c2nc3c(c(-c4ccc(Cl)cc4)c12)CNC1(CCSCC1)N3	class 0
CN(C)CC1=NC2SC=C(c3ccccc3)C2C(=O)N1CC#N (centres undefined)	class 0
C=C(C)[C@@H]1CC[C@]2(C(=O)NC3CCCCC3)CC[C@]3(C)[C@H](CC[C@@H]4[C@@]5(C)CCC(=O)C(C)(C)[C@@H]5CC[C@]43C)[C@@H]12	class 0

----------
- Test system: SF-295 CNS
- Method Summary: NCI-60 one-dose screen, 48 h
- Experimental Setup: 10 µM unless noted
Compounds without any hit were thinned out: in the full panel of roughly 83,000, 20% have a hit. Activity calls are given as the source filed them. How the source made its calls: active means growth percent below 10; inactive means the rest.
Possible outcomes: t (active), f (inactive)

Compound	Cat
COc1ccc(-c2csc(C3=C(O)CN(CCCN4CCCC4=O)C3=N)n2)cc1OC	f
CN(Cc1cnc2nc(N)nc(N)c2n1)c1ccc(C(=O)N[C@@H](CCc2nn[nH]n2)c2nn[nH]n2)cc1	f
N#CC1=C(c2ccc(Br)cc2)NC(SCC(=O)c2ccc(Br)cc2)NC1=O (centres undefined)	f
O=C1N=c2cc3c(cc2=C/C1=C/c1sc(=S)n(CCc2ccc(O)cc2)c1O)OCCO3	f
CCN1C(=O)N(CC)C2C1NN=c1s/c(=C\c3cccs3)c(=O)n12 (centres undefined)	f
CCCCCCCCCCCCCCCCCCOc1ccc(CC(=O)OCC[N+]2(C)CCCC2)cc1	f
Cn1cc(-c2csc(-c3cccc(F)c3)n2)c2cccnc21	t
CC1(C)CC(=O)C2=C(C1)N(c1ccc(OC(F)(F)F)cc1)C(N)=C(C#N)C2c1ccc(Cl)cc1 (centres undefined)	f
COc1ccc2c(c1)C(=O)/C(=C/c1cccc(OCC(=O)Nc3nc(C)c(C)s3)c1)O2	t

Data origin, for the record: PubChem BioAssay (NCI)
